Molecular target: human VDR (Homo sapiens)
Sequence (P11473 whole entry): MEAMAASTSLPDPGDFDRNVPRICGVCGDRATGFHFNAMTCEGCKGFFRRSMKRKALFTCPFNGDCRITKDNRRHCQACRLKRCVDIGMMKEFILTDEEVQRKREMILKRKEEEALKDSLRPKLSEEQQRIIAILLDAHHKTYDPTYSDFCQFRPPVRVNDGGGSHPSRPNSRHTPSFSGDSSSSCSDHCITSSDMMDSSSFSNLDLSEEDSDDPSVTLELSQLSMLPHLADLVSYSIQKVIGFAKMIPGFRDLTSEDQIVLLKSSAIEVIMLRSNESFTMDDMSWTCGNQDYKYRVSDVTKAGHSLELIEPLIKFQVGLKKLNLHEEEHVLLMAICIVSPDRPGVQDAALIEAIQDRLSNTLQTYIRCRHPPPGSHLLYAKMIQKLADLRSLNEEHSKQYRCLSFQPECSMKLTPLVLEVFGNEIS
Sequence (P19793 whole entry partner): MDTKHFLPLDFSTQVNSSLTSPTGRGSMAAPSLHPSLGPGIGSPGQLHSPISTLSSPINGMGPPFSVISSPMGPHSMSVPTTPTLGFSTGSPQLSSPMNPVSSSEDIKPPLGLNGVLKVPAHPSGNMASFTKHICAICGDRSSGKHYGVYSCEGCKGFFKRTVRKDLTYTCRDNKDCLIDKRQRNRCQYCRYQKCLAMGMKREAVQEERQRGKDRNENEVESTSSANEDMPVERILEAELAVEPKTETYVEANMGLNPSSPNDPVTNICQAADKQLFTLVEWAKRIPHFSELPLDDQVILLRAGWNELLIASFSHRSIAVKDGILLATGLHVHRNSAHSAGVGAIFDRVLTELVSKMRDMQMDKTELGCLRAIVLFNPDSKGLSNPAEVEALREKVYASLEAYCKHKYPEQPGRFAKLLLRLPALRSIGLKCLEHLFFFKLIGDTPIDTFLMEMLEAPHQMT
Assay: Evaluation of VDR transcription activity in human osteoblasts (HOS cells), luciferase reporter
Conditions: Activity (EC50, VDR transcription activity), HOS cells transfected with human VDR, human RXRα and DR3 luciferase reporter; 21 hours
pEC50: −log10 of the molar value.
Attribute measured: pEC50

| Compound | Assay system | Reading |
| --- | --- | --- |
| C=C1/C(=C\C=C2/CCC[C@]3(C)[C@@H]([C@H](C)CN4CCC(C(F)F)CC4)CC[C@@H]23)C[C@@H](O)[C@H](C)[C@@H]1O | human VDR (Homo sapiens) | 6.00 to 7.00 |
| C[C@@H](CN1CC[C@@H](C(C)(F)F)C1)[C@H]1CC[C@H]2/C(=C/C=C3CC(O)C[C@H](O)C3)CCC[C@]12C (stereo in doubt) | human VDR (Homo sapiens) | 8.00 to 9.00 |
| C=C1/C(=C\C=C2/CCC[C@]3(C)[C@@H]([C@@H](C)CN4CC[C@H](C(F)F)C4)CC[C@@H]23)C[C@@H](O)C[C@@H]1O | human VDR (Homo sapiens) | 6.00 to 7.00 |

Asked: Given the entry C=C1[C@H](O)CC(=C/C=C2\CCC[C@]3(C)[C@@H]([C@H](C)CCN4C[C@@H](C)OC[C@H]4C)CC[C@@H]23)C[C@H]1O , report its measured pEC50.
Given back: 8.00 to 9.00
